We begin with a simple list: items and their reported solubility.
Experiment: Solubility in octanol at pH 7.4
Format: physicochemical

{"columns": ["Molecule", "solubility [µM]"],
 "data": [
  ["CCC(COc1cc(N)nc(N)n1)Nc1ccnc2cc(Cl)ccc12 (stereo not drawn)", 5.68],
  ["Nc1cc(OCCCNc2ccnc3cc(Cl)ccc23)nc(N)n1", 1.2],
  ["Nc1cc(NCCCCNc2ccnc3cc(Cl)ccc23)nc(N)n1", 2.91]
]}

---

Experiment: Aqueous solubility in pH 5.5 PBS buffer at 37 degC incubated for 24 hrs by HPLC method
Format: physicochemical
Settings: pH 5.5, 24 h
We begin with a simple list: items and their reported solubility.

{"columns": ["Compound", "solubility"],
 "data": [
  ["Nc1cc(NCCCCNc2ccnc3cc(Cl)ccc23)nc(N)n1", "1.04 µM"],
  ["Nc1cc(OCCNc2ccnc3cc(Cl)ccc23)nc(N)n1", "0.3 µM"],
  ["Nc1cc(OCCCNc2ccnc3cc(Cl)ccc23)nc(N)n1", "0.31 µM"],
  ["Nc1cc(N2CCN(c3ccnc4cc(Cl)ccc34)CC2)nc(N)n1", "0.66 µM"],
  ["CCc1nc(N)nc(N)c1-c1ccc(Cl)cc1", "1.16 µM"],
  ["CC(COc1cc(N)nc(N)n1)Nc1ccnc2cc(Cl)ccc12 (stereo unspecified)", "1.45 µM"],
  ["Nc1cc(OCCOCCNc2ccnc3cc(Cl)ccc23)nc(N)n1", "1.17 µM"],
  ["Nc1cc(Nc2ccc(Nc3ccnc4cc(Cl)ccc34)cc2)nc(N)n1", "0.01 µM"],
  ["CCC(COc1cc(N)nc(N)n1)Nc1ccnc2cc(Cl)ccc12 (stereo unspecified)", "0.04 µM"],
  ["Nc1cc(NCCCNc2ccnc3cc(Cl)ccc23)nc(N)n1", "0.88 µM"],
  ["Nc1cc(NCCNc2ccnc3cc(Cl)ccc23)nc(N)n1", "0.52 µM"]
]}

---

Tested on: Plasmodium falciparum
Assay: microbe, parasite or virus in culture
Details: D10, 48 h

{"columns": ["Molecule", "Unit Symbol", "IC50"],
 "data": [
  ["CC(COc1cc(N)nc(N)n1)Nc1ccnc2cc(Cl)ccc12 (configuration not stated)", "nM", 243],
  ["Nc1cc(NCCCCNc2ccnc3cc(Cl)ccc23)nc(N)n1", "nM", 580],
  ["Nc1cc(NCCCNc2ccnc3cc(Cl)ccc23)nc(N)n1", "nM", 850],
  ["Nc1cc(OCCOCCNc2ccnc3cc(Cl)ccc23)nc(N)n1", "nM", 837],
  ["CCC(COc1cc(N)nc(N)n1)Nc1ccnc2cc(Cl)ccc12 (configuration not stated)", "nM", 157],
  ["CCc1nc(N)nc(N)c1-c1ccc(Cl)cc1 [PYRIMETHAMINE]", "nM", 70],
  ["Nc1cc(Nc2ccc(Nc3ccnc4cc(Cl)ccc34)cc2)nc(N)n1", "nM", 220]
]}

---

We begin with a simple list: items and their reported solubility.
Test: Solubility in octanol at pH 7.4
Format: physicochemical
Endpoint Label: solubility

{"columns": ["Compound", "Measured"],
 "data": [
  ["Nc1cc(NCCNc2ccnc3cc(Cl)ccc23)nc(N)n1", "0.72 µM"],
  ["CC(COc1cc(N)nc(N)n1)Nc1ccnc2cc(Cl)ccc12 (centres undefined)", "2.14 µM"],
  ["Nc1cc(OCCOCCNc2ccnc3cc(Cl)ccc23)nc(N)n1", "0.44 µM"],
  ["Nc1cc(NCCCNc2ccnc3cc(Cl)ccc23)nc(N)n1", "0.79 µM"]
]}

---

Assay: Aqueous solubility in pH 7.4 PBS buffer at 37 degC incubated for 24 hrs by HPLC method
Type: physicochemical
Settings: pH 7.4, 24 h

{"columns": ["Molecule", "solubility / µM"],
 "data": [
  ["CCC(COc1cc(N)nc(N)n1)Nc1ccnc2cc(Cl)ccc12 (stereo not given)", 0.02],
  ["CC(COc1cc(N)nc(N)n1)Nc1ccnc2cc(Cl)ccc12 (stereo not given)", 0.25],
  ["Nc1cc(OCCCNc2ccnc3cc(Cl)ccc23)nc(N)n1", 0.12],
  ["Nc1cc(NCCCNc2ccnc3cc(Cl)ccc23)nc(N)n1", 0.62]
]}
